# PROCEDURE SUMMARY: AUC in monkey at 10 mg/kg, po
# Format: ADME, organism-based, Macaca mulatta
# Design: dose 10 mg/kg, route oral
# REPORTED CONDITIONS: rhesus monkey, plasma
PROPERTY NAME: AUC (ng·h/mL)
// return numeric value only (unit: ng·h/mL, not printed)

GET /values?readout=AUC&item= CC(C)[C@H](NC(=O)CCN(C)C)c1cccc(F)c1N1CCN(C(=O)[C@H](C)Cc2ccc(Cl)cc2)CC1
2650

====

# PROCEDURE SUMMARY: Drug level in LLC tumor bearing C57BL/6J mouse brain at 20 mg/kg, po twice daily after 12 hrs on day of administration
# Type: ADME, organism-based
# Set-up: dose 20 mg/kg, route oral
PROPERTY NAME: concentration at 12 h (ng/g)
// return numeric value only (unit: ng/g, not printed)

GET /values?readout=concentration at 12 h&item= Cc1ccc(N2CCN(C(=O)[C@H](C)Cc3ccc(Cl)cc3)CC2)c([C@@H](NC(=O)CCN(C)C)C(C)C)c1
25

Entry source: ChEMBL document CHEMBL1150275
